test system: Leptinotarsa decemlineata; test: Insecticidal activity against second-instar larval stage of Leptinotarsa decemlineata infested potato leaves assessed as mortality at 20 ul after 24 hr (reference value: 3.3 +/- 3.3%); type: functional
Measured mortality determines class: A = under 70%, B = from 70% up to 90%, C = 90% and over

Please classify: C=CC(C)CCC=C(C)C (configuration not stated)
C

Band for the recorded mortality of CC(=O)OC/C=C(\C)CCC=C(C)C [GERANYL ACETATE] ?
A

Please indicate the class for CC(=O)OC/C=C(/C)CCC=C(C)C [NERYL ACETATE] based on its mortality.
A

Hey, which category is C=C(C)C1CCC2(C)OC2C1 (configuration not stated) [LIMONENE OXIDE] in, do you know?
C

Consider CC1=CCC2C(C1)C2(C)C (configuration not stated) . To which mortality class does it belong?
B

Lab log: `C/C=C(C)/C=C/C=C(C)C` — assign mortality category
A

The entry to classify is `CC1=CCC(C(C)C)=CC1` ; which class holds it?
C

Just checking, what class would you give `CC(C)=CCC[C@@H](C)CC=O` here?
B

Bin this entry: `C=C(C)[C@H]1CC=C(C)CC1`
B

====

test system: Leptinotarsa decemlineata; experiment: Insecticidal activity against second-instar larval stage of Leptinotarsa decemlineata infested potato leaves assessed as mortality at 20 ul after 12 hr relative to control; assay type: functional
Binning scheme for mortality: bottom: < 20%; middle: ≥ 20% and < 60%; top: ≥ 60%

Exercise: read the entry `C/C=C(C)/C=C/C=C(C)C` and state which class it falls under.
middle

Into which bin does this compound go? `CC(C)=CCC/C(C)=C\CO`
bottom

Tag the class for C=C(C)C1CC=C(C)C(=O)C1 (stereo unspecified)
middle

Form field 'band' for CC(=O)OC/C=C(\C)CCC=C(C)C [GERANYL ACETATE]
bottom

Class? Entry: C=CC(C)(CCC=C(C)C)OC(C)=O (stereo unspecified) [LINALYL ACETATE]
middle

# classify by mortality band: CC1=CCC2C(C1)C2(C)C (stereo unspecified)
top

Bin? C=C(C)[C@@H]1CC[C@@H](C)C(=O)C1 [DIHYDROCARVONE]
middle

For the record `C=CC(=C)CCC=C(C)C` , report the class its mortality corresponds to.
top

Each compound maps to one class by mortality. Which class for `CC(C)=CCC[C@@H](C)CC=O` ?
middle

The entry to classify is C=CC(C)CCC=C(C)C (stereo unspecified) ; which class holds it?
top

Form field 'band' for `CC1=CCC(C(C)C)=CC1`
top

Band for `C=C(C)[C@H]1CC=C(C)CC1` ?
top

# bin label for CC(C)=CCCC(C)CCO (stereo unspecified)
bottom

Assign a category based on measured mortality for `CC12CCC(CC1)C(C)(C)O2` and give only the class name.
top

Please classify: CC(=O)OC/C=C(/C)CCC=C(C)C [NERYL ACETATE]
bottom

Which bin, given its mortality, does CC(C)[C@H]1CC[C@H](C)CC1=O (relative stereo) occupy?
middle

Hi, small favor: classify C=CC(C)(O)CCC=C(C)C (stereo unspecified) by its mortality when you get a moment.
middle

====

test system: Leptinotarsa decemlineata; experiment: Insecticidal activity against adult Leptinotarsa decemlineata infested potato leaves assessed as mortality at 10 mg after 12 hr relative to control; assay type: functional
quantity_name: mortality (%)
Report as a plain number; the unit % is understood.

Please give the documented mortality of CC1(C)C2CCC1(C)C(O)C2 (stereo not drawn)
0

Please report mortality for the following molecule: CC1CCC(C(C)C)C(O)C1 (stereo not drawn)
3.3

Return value of mortality for input CC12CCC(C1)C(C)(C)C2=O (stereo not drawn) , no commentary.
53.3

Tell us which mortality value is on record for `CC(C)[C@H]1CC[C@@H](C)C[C@@H]1O`
0

Return mortality (reported value) for this molecule: CC12CCC(CC1=O)C2(C)C (stereo not drawn)
0

State its mortality for this molecule: `CC1=CC[C@@H](C(C)(C)O)CC1`
0

Tell me measured mortality for CC12CCC(C1)C(C)(C)C2O (stereo not drawn) please.
3.3

Identify measured mortality associated with C=C1C2CCC(C2)C1(C)C (stereo not drawn)
6.7
